# System: CHO cell line that expresses an antibody
# Procedure text: Batch experiment with the substances according to the invention (Example 1)
# Assay type: cell-based, Chinese hamster
# Assay context: batch mode, day 6; substance 0.5-1 g/l; basal medium glucose 4.7 g/l, glutamine […]
Readout name: Specific lactate production (Lac/VCD)
// return a plain number; no unit text

• NCCC[C@H](N)C(=O)O = 0.02
• O=C(O)C(O)C(O)C(=O)O (stereo not drawn) = 0.02
• O=C(O)CC(O)C(=O)O (stereo not drawn) = 0.03

CHO cell line that expresses an antibody assay, molecule CC(=O)C(=O)[O-].[Na+] [Sodium pyruvate] , recorded Specific lactate production (Lac/VCD) = 0.03

CHO cell line that expresses an antibody assay, molecule O=C(O)CCCCC(=O)O , recorded Specific lactate production (Lac/VCD) = 0.02

###

Glucose: recorded values
# Tested on: CHO cell line that expresses an antibody
# Procedure text: Batch experiment with the substances according to the invention (Example 1)
# Assay type: cell-based, Chinese hamster
# Assay context: batch mode, day 6; substance 0.5-1 g/l; basal medium glucose 4.7 g/l, glutamine […]
Respond with the bare value in g/L.

- O=C(O)C(O)C(O)C(=O)O (stereo not drawn) [Tartaric acid]: 3.56

Glucose measured on CC(=O)C(=O)[O-].[Na+] [Sodium pyruvate] = 2.81

Glucose measured on NCCC[C@H](N)C(=O)O [Ornithine] = 2.7

Glucose measured on CC(O)C(=O)[O-].[Na+] (stereo not drawn) [Sodium lactate] = 2.82

Glucose measured on O=C(O)CCCCC(=O)O [Adipic acid] = 2.95

Glucose measured on O=C([O-])/C=C/C(=O)[O-].[Na+].[Na+] [Sodium fumarate] = 2.61

Glucose measured on NC(=O)NCCC[C@H](N)C(=O)O [Citrulline] = 2.62

Glucose measured on O=C(O)CC(O)C(=O)O (stereo not drawn) [Malic acid] = 2.65

Glucose measured on O=C([O-])CCC(=O)[O-].[Na+].[Na+] [Sodium succinate] = 2.4

###

Specific ammonia production (NH4/VCD): recorded values
# System: CHO cell line that expresses an antibody
# Procedure text: Batch experiment with the substances according to the invention (Example 1)
# Format: cell-based, Chinese hamster
# Assay context: batch mode, day 8; substance 0.5-1 g/l; basal medium glucose 4.7 g/l, glutamine […]
// return a plain number; no unit text

- NCCC[C@H](N)C(=O)O: 0.14

CHO cell line that expresses an antibody assay, compound O=C([O-])CCC(=O)[O-].[Na+].[Na+] [Sodium succinate] , recorded Specific ammonia production (NH4/VCD) = 0.09

CHO cell line that expresses an antibody assay, compound O=C([O-])/C=C/C(=O)[O-].[Na+].[Na+] [Sodium fumarate] , recorded Specific ammonia production (NH4/VCD) = 0.14

CHO cell line that expresses an antibody assay, compound O=C(O)CCCCC(=O)O , recorded Specific ammonia production (NH4/VCD) = 0.20

CHO cell line that expresses an antibody assay, compound CC(O)C(=O)[O-].[Na+] (stereo not drawn) [Sodium lactate] , recorded Specific ammonia production (NH4/VCD) = 0.12

CHO cell line that expresses an antibody assay, compound O=C(O)CC(O)C(=O)O (stereo not drawn) , recorded Specific ammonia production (NH4/VCD) = 0.10

CHO cell line that expresses an antibody assay, compound O=C(O)C(O)C(O)C(=O)O (stereo not drawn) , recorded Specific ammonia production (NH4/VCD) = 0.33

CHO cell line that expresses an antibody assay, compound CC(=O)C(=O)[O-].[Na+] [Sodium pyruvate] , recorded Specific ammonia production (NH4/VCD) = 0.10

CHO cell line that expresses an antibody assay, compound NC(=O)NCCC[C@H](N)C(=O)O , recorded Specific ammonia production (NH4/VCD) = 0.20
